assay-remarks: P. aeruginosa biofilm formation inhibitors, primary screen, strain PAO1, LB-PBS medium, absorbance 600 nm (AID 1176); note: test concentration not given here
reported-conditions: P. aeruginosa PAO1 growth/biofilm, A600, 12 h; higher = more signal
z-score values by entry
Reply with just the number.

// known answers, use as guide
[[record]]
smiles_data = "O=C1O[C@@H](c2ccccc2)[C@@H](c2ccccc2)N2[C@@H](c3ccc(O)cc3)[C@]3(C(=O)Nc4ccc(C#CCCO)cc43)[C@@H](C(=O)Nc3nc4ccccc4s3)[C@H]12"
measured_number = 0.513

[[record]]
smiles_data = "C=CCOC(=O)[C@@H]1[C@H]2C(=O)O[C@H](c3ccccc3)[C@H](c3ccccc3)N2[C@H](c2ccc(OCCOC(=O)[C@H]3C[C@H]4C(=O)N[C@@H](CC(C)C)C(=O)N4[C@H]3c3ccc(O)cc3)cc2)[C@@]12C(=O)Nc1ccc(I)cc12"
measured_number = 2.44


// next entry
In plain terms, `C=C(COC)/C(=C/C[C@@H](OC(=O)c1ccncc1)c1cccc(OCCO)c1)c1cnc2ccccc2c1` has a documented z-score of 1.17

###

assay-remarks: RPMI8226 myeloma cell viability, profiling panel, resazurin fluorescence, basal, 24 h, PK04 Diversity Set (AID 1180);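 note: RPMI8826 multiple myeloma cell line at 5000 cells per well; test concentration not given here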
reported-conditions: higher = more signal
Range-based classes on measured z-score: range 1: < -0.6; range 2: ≥ -0.6 and < 0.05; range 3: ≥ 0.05

Record excerpt, results attached:
[[record]]
compound = "COc1ccc([Si](C)(C)[C@@H]2[C@@H](CCn3cc([C@H](O)c4ccccc4)nn3)O[C@]3(C(=O)N(Cc4ccc(N5CCOC5=O)cc4)c4ccccc43)[C@H]2C)cc1"
answer_label = "range 2"

[[record]]
compound = "CCOC(=O)C[C@H]1[C@H](OC(=O)c2ccc(-c3ccccc3)cc2)[C@@H](NC(=O)C2CCCCC2)c2cc(OCCCO)ccc2N1C(=O)c1ccccc1"
answer_label = "range 1"

[[record]]
compound = "CC1CC/C=C\\[C@H]2OC34C=CCN(c5ccc6ccccc6c5)C(=O)[C@H]3N(C(CO)C(C)C)C(=O)[C@@H]4C2C(=O)O1 (some centres undefined)"
answer_label = "range 2"


Ask: Lab log: `C=C(CCCC)/C(=C/C[C@@H](OC(C)=O)c1ccc(CO)o1)c1cc(C(=O)OC)ccc1OC` — assign z-score category
Reply: range 3

Ask: Lab log: `CC(C)NC(=O)[C@@]1(C)c2ccccc2C(=O)N(C(C)C)[C@H]1c1ccc(CO)cc1` — assign z-score category
Reply: range 2

Ask: Lab log: `COCCOC(=O)N1C(=O)[C@@]2(c3cc(C#CC4(O)CCCCCC4)ccc31)[C@H](C(=O)N1CCCCCCC1)[C@H]1C(=O)O[C@H](c3ccccc3)[C@H](c3ccccc3)N1[C@@H]2c1ccc(OCCO)cc1` — assign z-score category
Reply: range 3

Ask: Lab log: O=C1OCCC=C[C@H]2OC34C=CCN(c5ccc(Cl)cc5)C(=O)[C@H]3N(CCCCCO)C(=O)[C@@H]4C12 (some centres undefined) — assign z-score category
Reply: range 3

Ask: Lab log: CCCCN1CC=CC23O[C@@H]4C=CCOC(=O)[C@@H]4[C@H]2C(=O)N(CCCO)[C@@H]3C1=O (some centres undefined) — assign z-score category
Reply: range 1

Ask: Lab log: COc1ccc(C(O)C2C=CC3C(=O)N(c4ccccc4)C(=O)C3N2Nc2ccc(C#N)cc2)c2ccccc12 (centres undefined) — assign z-score category
Reply: range 2

Ask: Lab log: `[N-]=[N+]=NCc1ccccc1C[C@@]1(C(N)=O)N=C(c2ccc(OCCCO)cc2)O[C@@H]1c1ccccc1CN=[N+]=[N-]` — assign z-score category
Reply: range 2

Ask: Lab log: `Cc1ccc(S[C@]2(C(=O)NCC(C)C)CC(=O)N(Cc3ccccc3Cl)[C@@H]2c2ccc(CO)cc2I)cc1` — assign z-score category
Reply: range 1

Ask: Lab log: `C=C(C(=O)CC[C@H](OC(C)=O)c1cccc(OCCO)c1)C(C)C` — assign z-score category
Reply: range 2

Ask: Lab log: `[N-]=[N+]=Nc1ccccc1C[C@@]1(C(=O)O)N=C(c2ccc(OCCCO)cc2)O[C@@H]1c1ccccc1` — assign z-score category
Reply: range 3

Ask: Lab log: CCCCC(CC)C(O)C1C=CC2C(=O)N(c3ccccc3)C(=O)C2N1Nc1ccc([N+](=O)[O-])cc1 (centres undefined) — assign z-score category
Reply: range 1

Ask: Lab log: `COCCCNC(=O)[C@@H]1c2ccccc2C(=O)N(Cc2ccccc2C(F)(F)F)[C@H]1c1ccc(CO)cc1` — assign z-score category
Reply: range 3

Ask: Lab log: `C=CCNC(=O)[C@H]1[C@@H]2C(=O)O[C@@H](c3ccccc3)[C@@H](c3ccccc3)N2[C@@H](c2ccccc2OCCO)[C@]12C(=O)N(C(=O)OCCOC)c1ccc(C#CC3=CCCCC3)cc12` — assign z-score category
Reply: range 1

Ask: Lab log: `NC(=O)NCC#Cc1ccc2c(c1)[C@]1(C(=O)N2)[C@H](C(=O)O)[C@H]2C(=O)O[C@H](c3ccccc3)[C@H](c3ccccc3)N2[C@@H]1c1ccccc1OCCO` — assign z-score category
Reply: range 3

Ask: Lab log: `C=C(/C=C/CNS(=O)(=O)c1ccc(C)cc1)[C@H](O)[C@H]1CCCN1S(=O)(=O)c1ccccc1[N+](=O)[O-]` — assign z-score category
Reply: range 3

Ask: Lab log: C=CCC(OC(C)=O)[C@@H]1[C@@H](N(Cc2ccc(-c3ccccc3)cc2)C(=O)c2cccc3ccccc23)c2cc(OCCCO)ccc2N1C(=O)Cc1ccc2ccccc2c1 (some centres undefined) — assign z-score category
Reply: range 2

Ask: Lab log: CN1C(=O)C2C=CC(C(O)C3CCCCC3)N(N3CCCCC3)C2C1=O (centres undefined) — assign z-score category
Reply: range 2

Ask: Lab log: `COc1ccc(CCNC(=O)[C@@]2(Sc3ccc(C)cc3)CC(=O)N(Cc3cc(C(F)(F)F)cc(C(F)(F)F)c3)[C@@H]2c2ccc(CO)cc2I)cc1` — assign z-score category
Reply: range 1

Ask: Lab log: `O=C1c2ccccc2[C@](Cc2ccccc2I)(C(=O)NCCN2CCOCC2)[C@H](c2ccc(CO)cc2)N1Cc1ccccc1` — assign z-score category
Reply: range 1

###

target-desc: Torsin-1A-interacting protein 2 (Homo sapiens)
assay-remarks: LULL1 binders on small-molecule microarray, primary screen, cell lysate, human LULL1 lysate, 635/667 nm fluorescence (AID 1092);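 note: probe is lysate of COS7 cells overexpressing human LULL1; score merges per-feature 667 nm fluorescence with signal-to-noise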
reported-conditions: hLULL1 lysate binding, 635 nm fluorescence, higher = more signal
composite z-score values by entry
Reply with just the number.

[[record]]
compound = "CC(C)C(O)C1C=CC2C(=O)N(C)C(=O)C2N1N(c1ccccc1)c1ccccc1 (centres undefined)"
target_desc = "Torsin-1A-interacting protein 2 (Homo sapiens)"
measured_number = 2.17

[[record]]
compound = "C=CC[C@@H](OC(=O)Nc1ccc(OC)cc1)c1ccc(OCCO)cc1"
target_desc = "Torsin-1A-interacting protein 2 (Homo sapiens)"
measured_number = -0.0818

[[record]]
compound = "NC(=O)NCC#Cc1ccc2c(c1)[C@]1(C(=O)N2)[C@H](C(=O)Nc2nc3ccccc3s2)[C@H]2C(=O)O[C@H](c3ccccc3)[C@H](c3ccccc3)N2[C@@H]1c1ccc(O)cc1"
target_desc = "Torsin-1A-interacting protein 2 (Homo sapiens)"
measured_number = -0.569


// next entry
In plain terms, `[N-]=[N+]=NCc1ccccc1C[C@@]1(C(N)=O)N=C(c2ccc(OCCCO)cc2)O[C@@H]1c1ccccc1CN=[N+]=[N-]` has a documented composite z-score of 2.94

###

composite z-score values by entry
target-desc: Left-right determination factor 2 (Homo sapiens) (UniProt O00292)
Sequence (O00292 whole entry, looked up): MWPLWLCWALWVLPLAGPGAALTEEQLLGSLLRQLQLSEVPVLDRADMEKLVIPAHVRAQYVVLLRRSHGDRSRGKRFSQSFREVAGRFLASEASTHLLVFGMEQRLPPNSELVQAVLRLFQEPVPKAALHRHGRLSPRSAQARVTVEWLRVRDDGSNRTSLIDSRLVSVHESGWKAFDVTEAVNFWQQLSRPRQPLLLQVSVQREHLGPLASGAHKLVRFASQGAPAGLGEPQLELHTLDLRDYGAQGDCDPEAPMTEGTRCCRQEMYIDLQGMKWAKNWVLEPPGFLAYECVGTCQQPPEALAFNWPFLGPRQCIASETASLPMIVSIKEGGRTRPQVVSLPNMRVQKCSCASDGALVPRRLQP
assay-remarks: LEFTY2 binders on small-molecule microarrays, primary screen, biochemical, small-molecule microarray, 635 nm fluorescence scan (AID 1110)
reported-conditions: LEFTY2 binding, higher = more signal

// known answers, use as guide
[[record]]
molecule = "COCCOC(=O)N1C(=O)[C@@]2(c3cc(C#CC4(O)CCCCCC4)ccc31)[C@H](c1ccccc1OCCO)N1[C@H](c3ccccc3)[C@H](c3ccccc3)OC(=O)[C@H]1[C@@H]2C(N)=O"
target_desc = "Left-right determination factor 2 (Homo sapiens) (UniProt O00292)"
result = 0.844

[[record]]
molecule = "O=C1c2ccccc2[C@@]2(Cc3ccccc3N(C3CC3)C2=O)[C@H](c2ccc(CO)cc2)N1C1CCCCC1"
target_desc = "Left-right determination factor 2 (Homo sapiens) (UniProt O00292)"
result = -0.825


In plain terms, CCCCN1CC=CC23O[C@@H]4C=CCOC(=O)[C@@H]4[C@H]2C(=O)N(C(C)CO)[C@@H]3C1=O (stereo not given in full) has a documented composite z-score of -1.29

In plain terms, `C=C(C(=O)CC[C@H](OC(=O)c1cccnc1)c1cccc(OCCO)c1)C(C)C` has a documented composite z-score of -0.507

In plain terms, `Cc1ccc(F)cc1S(=O)(=O)N[C@@H]1CCN(Cc2ccc(OC(C)C)cc2)C1` has a documented composite z-score of 0.2
